Kindly state log10 of TGI for each of the entries shown.
system: M14 melanoma; test: NCI tumour cell line growth inhibition, 48 h
Transform log10 | Measure TGI | Unit µM

INPUT: Could you share which log10 of TGI value was measured for `C=C1C(=O)O[C@H]2[C@H]1CC/C(COC(=O)/C=C\C(=O)NCc1ccc(Cn3c(=O)sn(-c4ccc(OC)cc4)c3=O)cc1)=C\CC[C@@]1(C)O[C@@H]21` ?
OUTPUT: 0.13

INPUT: Given `O=C1C=C(c2c(-c3ccccc3)[nH]c3ccccc23)C(=O)N1c1ccccc1` , state its recorded log10 of TGI.
OUTPUT: 1.48

INPUT: Quick check: log10 of TGI of `COC(=O)c1cc(C)n2c1CS[C@@H]2c1ccccc1` ?
OUTPUT: 1.87

INPUT: What does the record list as log10 of TGI for `CCCCOP(=O)(OCCCC)/C(C#N)=C/c1ccc(C)o1` ?
OUTPUT: 1.89

INPUT: Need log10 of TGI of `CC(=O)c1ccc(N2CCN(c3c(O)c4c(c(O)c3Cl)C(=O)C=CC4=O)CC2)cc1` , thanks.
OUTPUT: 0.83

INPUT: May I ask what log10 of TGI has been recorded for `CN(C)c1ccc(/C=C/C(=O)c2ccccc2)cc1Br` ?
OUTPUT: 1.44

INPUT: Form field: reported log10 of TGI of `O=C(c1ccccc1)c1ccc(Cl)c([N+](=O)[O-])c1`
OUTPUT: 1.25

====

system: 786-0 renal; assay: NCI tumour cell line growth inhibition, 48 h
I'd be grateful if you could share measured TGI for these entries.

INPUT: Give TGI (786-0 renal) of the following compound: CC1=NN(C(=O)CC(=O)Nc2ccccc2C)C(=O)C1N=Nc1ccc(S(=O)(=O)c2ccc(N=NC3C(=O)N(C(=O)CC(=O)Nc4ccccc4C)N=C3C)cc2)cc1 (stereo unspecified)
OUTPUT: > 100 µM

INPUT: Lab note: need TGI for `Cc1ccc(Cl)cc1Nc1nc(C(F)(F)F)ccc1C(=O)N/N=C/c1c(Cl)cccc1Cl` on 786-0 renal, anyone have it?
OUTPUT: 1.38 µM

INPUT: So what TGI did `O=C(CSc1nc2ccc([N+](=O)[O-])cc2[nH]1)Nc1cccc(Cl)c1` get with 786-0 renal?
OUTPUT: 14.1 µM

INPUT: Give recorded TGI with 786-0 renal for the following compound: OC(c1ccsc1)c1cc2ccccc2s1 (stereo unspecified)
OUTPUT: > 10 µM

INPUT: Record `COc1cc(CNc2nc3ccccc3nc2-c2cccs2)cc(OC)c1OC` : what is its TGI with 786-0 renal?
OUTPUT: > 100 µM

INPUT: // fetch 786-0 renal TGI for `CC(=O)Oc1ccc2ccc(=O)oc2c1OC(C)=O`
OUTPUT: > 100 µM

====

system: MOLT-4 leukemia; assay: NCI tumour cell line growth inhibition, 48 h
Please provide measured TGI for the entries that follow.
The figure you give is taken to be in µM; do not add the unit.

INPUT: Query (compound): `Cn1c(=O)nc2n(-c3ccc(F)cc3)c3ccccc3nc-2c1=O` ; field requested: TGI
OUTPUT: 62.8

INPUT: If you can, please state the reported TGI value of `CC(=O)c1ccc(N2CCN(c3c(O)c4c(c(O)c3Cl)C(=O)C=CC4=O)CC2)cc1` .
OUTPUT: 4.57

INPUT: Recorded TGI of `CN(C)c1ccc(/C=C/C(=O)c2ccccc2)cc1Br` , please.
OUTPUT: 69

INPUT: # get_value(readout='TGI', item= NCCCCC(N)C(=O)N1CCN(c2nc(N3CCCC3)c3nc(Cl)c(NCc4ccccc4)nc3n2)CC1 (stereo not given) )
OUTPUT: 50.6
